Reported pIC50 values for a set of binders
EXPERIMENTAL_SYSTEM: T1, HLA-DP molecule DPB1*0101 (human, UniProt P20036 29-222; P04440 30-225, limits assumed)
T1 MHC II alpha: not shown
T1 MHC II beta: not shown
ASSAY_NOTES: inhibition of radiolabeled peptide binding to purified HLA-DP
Recall that pIC50 is obtained by taking minus log10 of the concentration measured in molar.

BINDER: NDKFTVFEGAFNKAI [Pha a 5 peptide, position 181, NDKFTVFEGAFNKAI (Peptide ID 3324.1442)]
pIC50: 6.21

Now examine the next entry.
Given item DSYKFIPTLVAAVKQ [Lol p 5 1 peptide, position 236, DSYKFIPTLVAAVKQ (Peptide ID 3324.1165)] , the value recorded as its pIC50 is 7.10

The origin of these recorded values is patent US20150004189A1.
